Source: patent US9061030B2

molecular target: soluble guanylate cyclase (sGC) (Homo sapiens, UniProt Q02108+Q02153); construct: endogenously expressing soluble guanylate cyclase (sGC); endogenous in cells; host or cells: HEK293; assay: sGC-HEK-cGMP assay; assay type: cell-based; conditions: compound at 30 μM, HEK293 cells, 10 μM SNP; percentage of sGC activity obtained with positive control BAY 41-2272 (= 100%)
quantity-measured: Emax at 30 µM

Example entries begin here.
> print(dat)
                           molecular.string                            assayed.system  quantity.measured    reading
1      Fc1ccccc1Cn1nc(-c2ncccn2)nc1-c1ccco1  soluble guanylate cyclase (sGC) (Homo sapiens, UniProt Q02108+Q02153)      Emax at 30 µM  10 to 20%
2  Nc1ccnc(-c2nc(-c3cocn3)n(Cc3ccccc3F)n2)c1  soluble guanylate cyclase (sGC) (Homo sapiens, UniProt Q02108+Q02153)      Emax at 30 µM  40 to 60%
3  Fc1ccccc1Cn1nc(-c2nccs2)nc1-c1cccc(Br)n1  soluble guanylate cyclase (sGC) (Homo sapiens, UniProt Q02108+Q02153)      Emax at 30 µM    0 to 5%
4  Fc1ccccc1Cn1nc(-c2cc(Br)ccn2)nc1-c1cscn1  soluble guanylate cyclase (sGC) (Homo sapiens, UniProt Q02108+Q02153)      Emax at 30 µM  20 to 40%
5      Fc1ccccc1Cn1nc(-c2ncccn2)nc1-c1cocn1  soluble guanylate cyclase (sGC) (Homo sapiens, UniProt Q02108+Q02153)      Emax at 30 µM  20 to 40%

Kindly review the next compound as well.
Report its Emax at 30 µM with soluble guanylate cyclase (sGC) (Homo sapiens, UniProt Q02108+Q02153) as the test system: Fc1ccccc1Cn1nc(-c2ncccn2)nc1-c1ccccn1
10 to 20%

----------
Each entry below carries its recorded Emax at 30 µM.
Biological target: soluble guanylate cyclase (sGC) (Homo sapiens, UniProt Q02108+Q02153)
Construct: endogenously expressing soluble guanylate cyclase (sGC); endogenous in cells; host or cells: HEK293
Sequence (Q02153 1-619): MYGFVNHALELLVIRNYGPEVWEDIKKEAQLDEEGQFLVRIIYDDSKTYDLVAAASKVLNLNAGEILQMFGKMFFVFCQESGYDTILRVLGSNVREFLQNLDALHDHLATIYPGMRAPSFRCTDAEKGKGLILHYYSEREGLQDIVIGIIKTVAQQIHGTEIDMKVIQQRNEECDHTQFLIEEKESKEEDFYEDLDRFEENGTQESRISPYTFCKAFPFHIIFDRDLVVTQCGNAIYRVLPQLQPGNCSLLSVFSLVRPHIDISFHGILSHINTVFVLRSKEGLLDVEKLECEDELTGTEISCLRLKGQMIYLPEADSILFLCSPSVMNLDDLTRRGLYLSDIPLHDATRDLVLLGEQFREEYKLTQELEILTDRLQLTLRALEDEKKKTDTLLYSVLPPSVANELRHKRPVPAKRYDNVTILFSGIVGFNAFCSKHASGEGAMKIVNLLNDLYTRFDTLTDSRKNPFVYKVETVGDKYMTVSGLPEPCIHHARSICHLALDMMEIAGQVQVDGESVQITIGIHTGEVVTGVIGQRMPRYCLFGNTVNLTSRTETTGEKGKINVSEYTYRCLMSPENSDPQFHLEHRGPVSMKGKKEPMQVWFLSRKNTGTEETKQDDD
Sequence (Q02108 1-690): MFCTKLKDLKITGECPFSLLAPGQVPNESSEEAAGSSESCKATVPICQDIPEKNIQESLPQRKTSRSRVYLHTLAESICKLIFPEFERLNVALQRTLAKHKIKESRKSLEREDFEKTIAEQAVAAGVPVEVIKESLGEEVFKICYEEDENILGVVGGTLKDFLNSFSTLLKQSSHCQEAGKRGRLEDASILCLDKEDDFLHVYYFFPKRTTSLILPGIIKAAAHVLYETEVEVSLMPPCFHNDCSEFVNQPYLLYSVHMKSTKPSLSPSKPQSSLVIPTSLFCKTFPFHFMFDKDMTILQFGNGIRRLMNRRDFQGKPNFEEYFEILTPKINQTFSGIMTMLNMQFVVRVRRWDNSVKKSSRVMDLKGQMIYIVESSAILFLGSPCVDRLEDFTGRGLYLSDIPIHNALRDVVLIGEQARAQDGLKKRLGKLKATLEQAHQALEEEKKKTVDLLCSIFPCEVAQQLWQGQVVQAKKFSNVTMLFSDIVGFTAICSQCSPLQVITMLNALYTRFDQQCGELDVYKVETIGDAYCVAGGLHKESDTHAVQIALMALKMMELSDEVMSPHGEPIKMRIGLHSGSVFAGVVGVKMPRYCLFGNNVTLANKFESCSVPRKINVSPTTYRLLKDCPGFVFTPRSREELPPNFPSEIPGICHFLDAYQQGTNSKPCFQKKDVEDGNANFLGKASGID
Experiment: sGC-HEK-cGMP assay
Format: cell-based
Conditions: compound at 30 μM, HEK293 cells, 10 μM SNP; percentage of sGC activity obtained with positive control BAY 41-2272 (= 100%)

Example entries begin here.
> print(dat)
                                   compound  quantity.measured    reading
1  Fc1ccccc1Cn1nc(-c2nccs2)nc1-c1cscn1 [Compound I-41]      Emax at 30 µM  60 to 80%
2  Fc1ccccc1Cn1nc(-c2cocn2)nc1-c1nccs1 [Compound I-62]      Emax at 30 µM   5 to 10%
3  Fc1ccccc1Cn1nc(-c2cc(Br)ccn2)nc1-c1nccs1 [Compound I-36]      Emax at 30 µM    0 to 5%

Identify Emax at 30 µM associated with the compound Nc1ccnc(-c2nc(-c3nccs3)n(Cc3ccccc3F)n2)n1 [Compound I-48]
60 to 80%

Identify Emax at 30 µM associated with the compound Fc1ccc(-c2nc(-c3nccs3)nn2Cc2ccccc2F)nc1 [Compound I-39]
5 to 10%
